Recorded pIC50 for the following compounds
- assayed_system: bakterielle Dihydrofolsäurereduktase (DHFR) (Escherichia coli)
- assay_comment: 50% inhibition of bacterial dihydrofolate reductase
- Format: biochemical, E. coli
Schema: pIC50 number; meaning minus log10 of the concentration expressed in molar units.

CSc1cc(C)c(Cc2cnc(N)nc2N)cc1SC	7.82

Prompt: Fill blank: measured pIC50 of the compound `COc1cc(Cc2cnc(N)nc2N)cc(OC)c1SC` is ____.
Response: 8.46

====

- assayed_system: UniProt P0ABQ4
- assay_comment: 50% inhibition of bacterial dihydrofolate reductase
- Format: biochemical, E. coli
- cond: DHFR of E. coli; read-out: 50% Hemmung der DHFR (M x 10^-8) E. coli
pIC50: −log10 of the molar value.
Param threshold (8) applies to pIC50; output yes when value >= threshold, no when value < threshold.

Here are 4 molecules together with their reported answers.
CSc1cc(Cc2cnc(N)nc2N)cc(SC)c1-n1cccc1 [R^1=H, R^2=SCH3, R^3=[drawing], R^4=SCH3]	yes
CSc1cc(Cc2cnc(N)nc2N)cc(SC)c1SC	yes
COCCSc1c(OC)cc(Cc2cnc(N)nc2N)cc1OC	no
COc1cc(Cc2cnc(N)nc2N)cc(SC)c1OC	yes

Moving on to another molecule below.
Prompt: Has `CCSc1c(OC)cc(Cc2cnc(N)nc2N)cc1OC` a recorded pIC50 greater than or equal to 8?
Response: yes
